tested on: NCI-H2009; test: relative viability (nuclei count vs DMSO), 5 days (fraction); higher = more cells survive; conditions: first compound 1.265 µM
RESULT TYPE: relative viability
Respond numerically, and do not add a unit to the figure.

Problem: Supply reported relative viability belonging to this molecule: Clc1ccc(Nc2nnc(Cc3ccncc3)c3ccccc23)cc1 [Vatalanib] + COc1cccc2cc(-c3nc([C@H]4CC[C@H](C(=O)O)CC4)n4ncnc(N)c34)[nH]c12 [OSI-027] (partner 0.5 µM)
Solution: 0.58

Problem: Supply reported relative viability belonging to this molecule: COc1cc(N2CCC(C(N)=O)CC2)ccc1Nc1nc(N)c(Cl)c(Nc2ccccc2S(=O)(=O)C(C)C)n1 [HG-5-88-01] + Nc1nc2[nH]cc(CCc3ccc(C(=O)N[C@@H](CCC(=O)O)C(=O)O)cc3)c2c(=O)[nH]1 [Pemetrexed] (partner 0.2 µM)
Solution: 0.963

Problem: Supply reported relative viability belonging to this molecule: Clc1ccc(Nc2nnc(Cc3ccncc3)c3ccccc23)cc1 [Vatalanib] + CC(C)C[C@H](NC(=O)[C@H](Cc1ccccc1)NC(=O)c1cnccn1)B(O)O [Bortezomib] (partner 0.002 µM)
Solution: 0.949

Problem: Supply reported relative viability belonging to this molecule: COc1cc(N2CCC(C(N)=O)CC2)ccc1Nc1nc(N)c(Cl)c(Nc2ccccc2S(=O)(=O)C(C)C)n1 [HG-5-88-01] + O=C(CCCCCCC(=O)Nc1ccccc1)NO [Vorinostat] (partner 1 µM)
Solution: 0.616

Problem: Supply reported relative viability belonging to this molecule: Clc1ccc(Nc2nnc(Cc3ccncc3)c3ccccc23)cc1 [Vatalanib] + COc1cc2c(Oc3ccc(NC(=O)C4(C(=O)Nc5ccc(F)cc5)CC4)cc3F)ccnc2cc1OCCCN1CCOCC1 [Foretinib] (partner 0.25 µM)
Solution: 1.2

Problem: Supply reported relative viability belonging to this molecule: Clc1ccc(Nc2nnc(Cc3ccncc3)c3ccccc23)cc1 [Vatalanib] + C[C@]1(O)C[C@@H](c2nc(-c3ccc4ccc(-c5ccccc5)nc4c3)c3c(N)nccn32)C1 [Linsitinib] (partner 1 µM)
Solution: 1.16
